Recorded values, source patent US20070179086A1.

subject-of-test: T1, recombinant human TR-2 with a C-terminal hexahistidine tag (TR-2-His) (human, UniProt O14763 56-207)
T1 construct: also called soluble TR-2-His
assay-details: SPR Biacore 2000; antibody captured on anti-human antibody chip, 226 nM TR-2-His injected, 25 C, 1:1 model;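 further: goat anti-human capture surface amine-coupled on CM5 chip, HBS-P running buffer with BSA, responses normalized to captured antibody level, kinetics from global 1:1 fitting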
Threshold check on koff: at or above 0.008 s⁻¹ gives 1 (yes), strictly below gives 0 (no).

{"columns": ["binder", "assigned-category"],
 "data": [
  ["anti-TR-2 antibody D (antibody, V domains shown, Human antibody from XenoMouse; also called Ab D) VH: QVQLQESGPGLVKPSQTLSLTCTVSGGSISSGGHYWSWIRQHPGKGLEWIGYIYYSGSAYYNPSLKSRVTISVDTSKNQFSLKLSSVTAADTAVYYCARDDSSGWGFDYWGQGILVTVSS VL: DIQMTQSPSSLSASVGDRVTITCRASQGLRNDLGWFQQKPGKAPKRLIYAASSLQRGVPSRFSGSGSGTEFTLTISSLQPEDFTTYFCLQHNSFPWTFGQGTKVEIK", "0 (no)"],
  ["anti-TR-2 antibody C (antibody, V domains shown, Human antibody from XenoMouse; also called Ab C) VH: QVQLQESGPGLVKPSQTLSLTCTVSGGSISSGGHYWSWIRQHPGKGLEWIGYIYYSGSAYYNPSLKSRVTISVDTSKNQFSLKLSSVTAADTAVYYCARDDSSGWGFDYWGQGILVTVSS VL: DIQMTQSPSSLSASVGDRVTITCRASQGLRNDLGWFQQKPGKAPKRLIYAASSLQRGVPSRFSGSGSGTEFTLTISSLQPEDFTTYFCLQHNSFPWTFGQGTKVEIK", "0 (no)"],
  ["anti-TR-2 antibody F (antibody, V domains shown, also called Ab F) VH: QVQLVESGGGVVQPGRSLRLSCAASGFTFSYYGIHWVRQAPGKGLEWVAVIWYDGSNKYYADSVKGRFTISRDNSKNTLYLQMNSLRAEDTAVYYCARGRYSSSSWWYFDLWGRGTLVTVSS VL: DIQMTQSPSSLSASVGDRVTITCRASQGISNYLAWYQQKPGKVPKLLIYAASTLQSGVPSRFSGSGSGTDFTLTISSLQPEDVATYYCQKYNSAPLTFGGGTKVEIK", "0 (no)"],
  ["anti-TR-2 antibody O (antibody, V domains shown, also called Ab O) VH: QVQLQESGPGLVKPSQTLSLTCTVSGGSISSGDYFWSWIRQLPGKGLECIGHIHNSGTTYYNPSLKSRVTISVDTSKKQFSLRLSSVTAADTAVYYCARDRGGDYYYGMDVWGQGTTVTVSS VL: EIVLTQSPGTLSLSPGERATLSCRASQGISRSYLAWYQQKPGQAPSLLIYGASSRATGIPDRFSGSGSGTDFTLTISRLEPEDFAVYYCQQFGSSPWTFGQGTKVEIK", "1 (yes)"],
  ["anti-TR-2 antibody K (antibody, V domains shown, also called Ab K) VH: QVQLVESGGGVVQPGRSLRLSCAASGFTFSTYGMHWVRQAPGKGLEWVAVIWYDGSNKYYADSVKGRFTISRDNSKNTLYLQMNSLRAEDTAVYYCARDRTVYSSSSPFYYYYYGMDVWGQGTTVTVSS VL: DIQMTQSPSSLSASVGDRVTITCRASQSISSYLNWYQQKPGKAPKLLISATSSFQSGVPSRFSGSGSGTDFTLTISSLQPEDFAAYYCQQSYSTPLTFGGGTKVEIK", "1 (yes)"]
]}
